molecular target: FAK (Homo sapiens, UniProt Q05397); construct: endogenous in cells; host or cells: U87MG glioblastoma cells (ATCC HTB-14); test: Cell-based capture ELISA for inhibition of FAK autophosphorylation [pY397] in U87MG cells; settings: no plasma present, mean IC50, read-out: FAK Activity Mechanistic (U87MG) NP
Sequence (Q05397 whole entry): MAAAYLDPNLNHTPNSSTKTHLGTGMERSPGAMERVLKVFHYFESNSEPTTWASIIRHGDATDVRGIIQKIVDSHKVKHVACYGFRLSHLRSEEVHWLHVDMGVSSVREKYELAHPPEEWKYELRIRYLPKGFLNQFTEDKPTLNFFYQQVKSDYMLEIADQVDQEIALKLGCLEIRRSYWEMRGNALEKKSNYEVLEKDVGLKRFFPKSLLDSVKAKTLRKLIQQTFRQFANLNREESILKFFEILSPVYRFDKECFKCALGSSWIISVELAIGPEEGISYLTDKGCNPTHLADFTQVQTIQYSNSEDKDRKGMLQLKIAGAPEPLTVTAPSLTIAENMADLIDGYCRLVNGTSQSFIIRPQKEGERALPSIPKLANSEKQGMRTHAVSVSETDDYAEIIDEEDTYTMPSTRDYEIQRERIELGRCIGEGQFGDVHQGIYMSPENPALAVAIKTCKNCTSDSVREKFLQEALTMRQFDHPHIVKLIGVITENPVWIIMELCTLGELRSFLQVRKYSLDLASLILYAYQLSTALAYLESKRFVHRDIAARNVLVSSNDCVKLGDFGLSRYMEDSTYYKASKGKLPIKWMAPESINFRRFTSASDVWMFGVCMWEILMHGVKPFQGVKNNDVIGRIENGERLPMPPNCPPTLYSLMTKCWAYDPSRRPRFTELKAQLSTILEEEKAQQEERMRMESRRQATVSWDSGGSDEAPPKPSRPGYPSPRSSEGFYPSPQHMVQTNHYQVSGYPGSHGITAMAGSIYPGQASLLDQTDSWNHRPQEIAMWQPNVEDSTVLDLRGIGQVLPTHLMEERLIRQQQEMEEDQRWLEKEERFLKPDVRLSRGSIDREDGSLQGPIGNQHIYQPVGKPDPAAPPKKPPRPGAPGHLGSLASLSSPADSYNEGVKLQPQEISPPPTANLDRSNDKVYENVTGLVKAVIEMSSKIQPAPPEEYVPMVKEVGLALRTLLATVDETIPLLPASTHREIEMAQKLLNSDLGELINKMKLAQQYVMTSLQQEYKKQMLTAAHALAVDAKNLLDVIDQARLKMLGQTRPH
pIC50: −log10 of the molar value.
MEASURED PROPERTY: pIC50

Reference set (2 entries):
- COMPOUND: "CCOP1(=O)Cc2ccc(c(OC)c2)Nc2ncc(C(F)(F)F)c(n2)Nc2ccc(nc2C(=O)NC)-c2cnn(c2C)CCCO1 (single isomer, unassigned) [Example 35B]"
  MEASURED PROPERTY: "pIC50"
  RECORDED VALUE: "> 6.40"
- COMPOUND: "CCOP1(=O)Cc2cc(OC)c(cc2Cl)Nc2ncc(C(F)(F)F)c(n2)Nc2ccc(nc2C(=O)NC)-c2cnn(c2)CCCO1 (racemic) [Example 56]"
  MEASURED PROPERTY: "pIC50"
  RECORDED VALUE: "> 6.40"

From here, focus on the item given below.
Q. Sample CNC(=O)c1nc2ccc1Nc1nc(ncc1C(F)(F)F)Nc1ccc(cc1OC)CP(=O)(C(C)C)OCCCn1cc-2cn1 (single isomer, unassigned) [Example 68A] — what was its pIC50?
A. > 6.40

====

target: FAK (Homo sapiens); construct: endogenous in cells; host or cells: U87MG glioblastoma cells (ATCC HTB-14); assay: Cell-based capture ELISA for inhibition of FAK autophosphorylation [pY397] in U87MG cells; details: no plasma present, mean IC50, read-out: FAK Activity Mechanistic (U87MG) NP
MEASURED PROPERTY: IC50

Below, 4 compounds whose answers are already recorded.
- COMPOUND: "CCOP1(=O)Cc2ccc(c(OC)c2)Nc2ncc(C(F)(F)F)c(n2)Nc2ccc(nc2C(=O)NC)-c2cnn(c2C#N)CCCO1 (racemic) [Example 53]"
  RECORDED VALUE: "> 4000 nM"
- COMPOUND: "CCOP1(=O)Cc2ccc(c(OC)c2)Nc2ncc(C(F)(F)F)c(n2)Nc2ccc(nc2C(=O)NC)-c2cc(C(=O)O)n(c2)CCCO1 (racemic) [Example 39]"
  RECORDED VALUE: "400 to 4000 nM"
- COMPOUND: "CCOP1(=O)Cc2ccc(c(OC)c2)Nc2ncc(C(F)(F)F)c(n2)Nc2ccc(nc2C(=O)NC)-c2cnn(c2)CCCCO1 (racemic) [Example 15]"
  RECORDED VALUE: "< 400 nM"
- COMPOUND: "CCOP1(=O)Cc2ccc(c(OC)c2Cl)Nc2ncc(C(F)(F)F)c(n2)Nc2ccc(nc2C(=O)NC)-c2cnn(c2)CCCO1 (racemic) [Example 54]"
  RECORDED VALUE: "< 400 nM"

Count: 4. Required value per item: IC50.
1. CCOP1(=O)Cc2ccc(c(Cl)c2)Nc2ncc(C(F)(F)F)c(n2)Nc2ccc(nc2C(=O)NC)-c2cnn(c2)CCCO1 (racemic) [Example 24]
2. CCOP1(=O)Cc2ccc(cc2)Nc2ncc(C(F)(F)F)c(n2)Nc2ccc(nc2C(=O)NC)-c2cnn(c2)CCCCO1 (stereo not drawn) [Example 16]
3. CCCP1(=O)Cc2ccc(c(OC)c2)Nc2ncc(C(F)(F)F)c(n2)Nc2ccc(cc2C(=O)NC)-c2cnn(c2)CCCO1 (racemic) [Example 66]
4. CCOP1(=O)Cc2ccc(c(OC)c2)Nc2ncc(C(F)(F)F)c(n2)Nc2ccc(nc2C(=O)NC)-c2cn(nc2OC)CCCO1 (single isomer, unassigned) [Example 48A]

A.
1. 400 to 4000 nM
2. < 400 nM
3. < 400 nM
4. < 400 nM

// input: 4 compounds below; output: IC50 for each
1. CCOP1(=O)Cc2ccc(c(OC)c2)Nc2ncc(C(F)(F)F)c(n2)Nc2ccc(nc2C(=O)NC)-c2cnn(c2)CCCO1 (racemic) [Example 6]
2. CCOP1(=O)Cc2ccc(c(OC)c2)Nc2ncc(C(F)(F)F)c(n2)Nc2ccc(nc2C(=O)NC)-c2cn(nc2C#N)CCCO1 (racemic) [Example 52]
3. CNC(=O)c1nc2ccc1Nc1nc(ncc1C(F)(F)F)Nc1ccc(cc1OC)CP(=O)(O)OCCCn1cc-2cn1 [Example 65]
4. CCOP1(=O)Cc2ccc(c(Cl)c2)Nc2ncc(C(F)(F)F)c(n2)Nc2ccc(nc2C(=O)NC)-c2cnn(c2)CCCCO1 (racemic) [Example 25]

A.
["< 400 nM", "< 400 nM", "> 4000 nM", "< 400 nM"]

====

molecular target: FAK (Homo sapiens); construct: endogenous in cells; host or cells: U87MG glioblastoma cells (ATCC HTB-14); test: Cell-based capture ELISA for inhibition of FAK autophosphorylation [pY397] in U87MG cells; details: 50% (v/v) human plasma, mean IC50, read-out: FAK Activity Mechanistic (U87MG) HP
pIC50: −log10 of the molar value.
MEASURED PROPERTY: pIC50

- MOLECULE: "CCP1(=O)Cc2ccc(c(OC)c2)Nc2ncc(C(F)(F)F)c(n2)Nc2ccc(nc2C(=O)NC)-c2cnn(c2)CCCO1 (racemic) [Example 67]"
  pIC50: "> 6.40"

Consider the following items and state reported pIC50 for each.
1. CCOP1(=O)Cc2ccc(c(OC)c2)Nc2ncc(C(F)(F)F)c(n2)Nc2ccc(nc2C(=O)NOC)-c2cnn(c2)CCCO1 (racemic)
2. CCOP1(=O)Cc2ccc(c(Cl)c2)Nc2ncc(C(F)(F)F)c(n2)Nc2ccc(nc2C(=O)NC)-c2cnn(c2)CCCCO1 (racemic)
3. CCOP1(=O)Cc2ccc(c(OC)c2Cl)Nc2ncc(C(F)(F)F)c(n2)Nc2ccc(nc2C(=O)NC)-c2cnn(c2)CC2(COC2)CO1 (racemic)
4. CCCP1(=O)Cc2ccc(c(OC)c2)Nc2ncc(C(F)(F)F)c(n2)Nc2ccc(nc2C(=O)NC)-c2cnn(c2)CCCO1 (single isomer, unassigned) [Example 37A]

A.
1: > 6.40; 2: > 6.40; 3: > 6.40; 4: 5.40 to 6.40

Q. Entry CCOP1(=O)Cc2ccc(c(OC)c2)Nc2ncc(C(F)(F)F)c(n2)Nc2ccc(nc2C(=O)NC)-c2cnn(c2)CC(C)CO1 (single isomer, unassigned) [Example 18] : reported pIC50 = ?
A. > 6.40

====

molecular target: FAK (Homo sapiens, UniProt Q05397); construct: endogenous in cells; host or cells: U87MG glioblastoma cells (ATCC HTB-14); test: Cell-based capture ELISA for inhibition of FAK autophosphorylation [pY397] in U87MG cells; conditions: 50% (v/v) human plasma, mean IC50, read-out: FAK Activity Mechanistic (U87MG) HP
MEASURED PROPERTY: IC50

As a guide, the following entries are already answered.
- MOLECULE: "CCOP1(=O)Cc2ccc(c(Cl)c2)Nc2ncc(C(F)(F)F)c(n2)Nc2ccc(nc2C(=O)NC)-c2cnn(c2)CCCO1 (single isomer, unassigned) [Example 24A]"
  IC50: "> 4000 nM"
- MOLECULE: "CCOP1(=O)Cc2ccc(c(OC)c2)Nc2ncc(C(F)(F)F)c(n2)Nc2ccc(nc2C(=O)NC)-c2cnn(c2)CC2(COC2)CO1 (racemic) [Example 44]"
  IC50: "< 400 nM"
- MOLECULE: "CCOP1(=O)Cc2ccc(c(OC)c2)Nc2ncc(C(F)(F)F)c(n2)Nc2ccc(nc2C(=O)NC)-c2cn(nc2C)CCCO1 (racemic) [Example 34]"
  IC50: "< 400 nM"
- MOLECULE: "CCP1(=O)Cc2ccc(c(OC)c2)Nc2ncc(C(F)(F)F)c(n2)Nc2ccc(nc2C(=O)NC)-c2cnn(c2)CC2(CC2)CO1 (racemic) [Example 71]"
  IC50: "< 400 nM"
- MOLECULE: "CCOP1(=O)Cc2ccc(cc2)Nc2ncc(C(F)(F)F)c(n2)Nc2ccc(cc2C(=O)N(C)C)-c2cnn(c2)CCCO1 (racemic) [Example 11]"
  IC50: "400 to 4000 nM"

Items follow; give IC50 for each.
1. CCNC(=O)c1cc2ccc1Nc1nc(ncc1C(F)(F)F)Nc1ccc(cc1)CP(=O)(OCC)OCCCn1cc-2cn1 (racemic) [Example 10]
2. CCOP1(=O)Cc2ccc(c(OC)c2)Nc2ncc(C(F)(F)F)c(n2)Nc2ccc(nc2C(=O)NC)-c2cc(C(=O)OC)n(c2)CCCO1 (racemic) [Example 38]
3. CCOP1(=O)Cc2ccc(c(OC)c2Cl)Nc2ncc(C(F)(F)F)c(n2)Nc2ccc(nc2C(=O)NC)-c2cnn(c2)CCCO1 (racemic) [Example 54]
4. CNC(=O)c1nc2ccc1Nc1nc(ncc1C(F)(F)F)Nc1ccc(cc1OC)CP(=O)(C(C)C)OCCCn1cc-2cn1 (racemic) [Example 68]

A.
> 4000 nM
< 400 nM
400 to 4000 nM
< 400 nM

Give measured IC50 for every item shown.
1. CCOP1(=O)Cc2cc(OC)c(cc2Cl)Nc2ncc(C(F)(F)F)c(n2)Nc2ccc(nc2C(=O)NC)-c2cnn(c2)CC2(COC2)CO1 (racemic) [Example 57]
2. CCNC(=O)c1nc2ccc1Nc1nc(ncc1C(F)(F)F)Nc1ccc(cc1OC)CP(=O)(OCC)OCC1(COC1)Cn1cc-2cn1 (racemic) [Example 45]
3. CCOP1(=O)Cc2ccc(c(OC)c2)Nc2ncc(C(F)(F)F)c(n2)Nc2ccc(nc2C(=O)NC)-c2cnn(c2)C(C)(C)CCO1 (single isomer, unassigned) [Example 50A]

A.
1: 400 to 4000 nM; 2: < 400 nM; 3: 400 to 4000 nM
